Data origin, for the record: patent US20140072563A1

TEST SYSTEM: T1, hErbB3.hFc (soluble dimeric human ErbB3 extracellular domain fused to human Fc) (human)
T1 construct: called dimeric
T1 sequence (chain, as listed by the source limits assumed): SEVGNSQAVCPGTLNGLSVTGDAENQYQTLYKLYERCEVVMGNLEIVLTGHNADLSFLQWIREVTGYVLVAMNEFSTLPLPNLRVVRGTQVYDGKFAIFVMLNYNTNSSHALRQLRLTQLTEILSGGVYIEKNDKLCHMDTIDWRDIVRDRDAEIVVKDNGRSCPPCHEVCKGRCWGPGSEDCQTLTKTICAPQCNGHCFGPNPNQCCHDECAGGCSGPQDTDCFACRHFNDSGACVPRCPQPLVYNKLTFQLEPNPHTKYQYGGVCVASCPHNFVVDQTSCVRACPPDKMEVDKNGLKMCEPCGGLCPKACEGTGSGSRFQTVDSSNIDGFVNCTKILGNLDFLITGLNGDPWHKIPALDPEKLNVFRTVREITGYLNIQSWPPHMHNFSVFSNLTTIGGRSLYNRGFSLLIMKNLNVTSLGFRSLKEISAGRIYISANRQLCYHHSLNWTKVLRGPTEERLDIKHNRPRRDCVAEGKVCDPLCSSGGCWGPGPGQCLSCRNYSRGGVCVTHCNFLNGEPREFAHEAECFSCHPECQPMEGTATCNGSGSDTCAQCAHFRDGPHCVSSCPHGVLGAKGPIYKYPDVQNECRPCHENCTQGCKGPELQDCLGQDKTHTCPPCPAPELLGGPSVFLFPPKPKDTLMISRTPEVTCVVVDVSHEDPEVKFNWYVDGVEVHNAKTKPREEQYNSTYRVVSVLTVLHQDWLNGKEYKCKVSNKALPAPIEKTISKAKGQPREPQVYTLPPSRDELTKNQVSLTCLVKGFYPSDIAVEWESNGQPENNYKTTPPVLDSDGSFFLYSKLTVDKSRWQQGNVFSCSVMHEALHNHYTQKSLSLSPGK
ASSAY COMMENT: SPR (Biacore), 25 C, mAb capture format
pKd: −log10 of the molar value.
READOUT NAME: pKd

BINDER | READOUT NAME | MEASURED RESULT
H2M1829N (antibody, V domains shown, Hybridoma chimeric antibody: human variable domains, mouse IgG2 Fc (H2M prefix)) VH: EVQLVESGGGVVRPGGSLRLSCVASGFTFDDYGMSWVRQAPGKGLECVSGINWNGGSTDYADSVKGRFTISRDNAKNSLYLQMNSLRAEDTALYHCARDGGDWDYFDLWGRGTLVTVSS VL: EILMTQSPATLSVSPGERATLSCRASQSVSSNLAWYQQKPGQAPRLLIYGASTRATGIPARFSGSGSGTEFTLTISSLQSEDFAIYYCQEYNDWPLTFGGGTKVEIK | pKd | 10.70
H1M1819N (antibody, V domains shown, Hybridoma chimeric antibody: human variable domains, mouse constant domains (H1M prefix, mouse Fc)) VH: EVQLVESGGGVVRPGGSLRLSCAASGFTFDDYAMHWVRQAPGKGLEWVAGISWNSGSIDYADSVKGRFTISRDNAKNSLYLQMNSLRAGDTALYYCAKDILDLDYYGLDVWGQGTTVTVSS VL: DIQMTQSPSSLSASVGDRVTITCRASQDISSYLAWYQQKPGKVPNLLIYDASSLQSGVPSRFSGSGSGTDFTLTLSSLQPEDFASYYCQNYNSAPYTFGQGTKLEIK | pKd | 9.91
H2M1827N (antibody, V domains shown, Hybridoma chimeric antibody: human variable domains, mouse IgG2 Fc (H2M prefix)) VH: EVQLVESGGGVVRPGGSLRLSCAASGFTFDDYGMSWVRQAPGKGLECVSGISWNGGNTDYADSVKGRFTISRDNAKNSLYLQMNSLRAEDTALYHCARDGGDWDYFDLWGRGTLVTVSS VL: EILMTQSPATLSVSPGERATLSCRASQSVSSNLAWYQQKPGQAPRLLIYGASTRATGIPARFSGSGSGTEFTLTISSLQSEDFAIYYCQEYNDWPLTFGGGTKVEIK | pKd | 10.76
